- system_under_test: HRgpA-6H (Porphyromonas gingivalis) (UniProt P28784)
- protocol_notes: ELISA, coated HRgpA-6H
Measured Ratio OD(Variant)/OD(WT) values are reported for all entries that follow.
Hey, just send me the number, nothing else.

KB001 mouse Fab VL S53V (Fab, V domains shown) VH: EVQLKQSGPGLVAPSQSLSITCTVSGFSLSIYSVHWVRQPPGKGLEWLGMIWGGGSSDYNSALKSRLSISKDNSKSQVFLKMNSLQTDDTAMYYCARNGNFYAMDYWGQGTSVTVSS VL: QIVLTQSPAIMSASLGERVTMTCTASSSVSSSFLHWYQQKPGSSPQLWIYSTVNLASGVPARFSGSGSGTSYSLTISSMEAEDAATYYCHQYHHSPYIYTFGGGTKLEIK :: 0.891

Below: the item to evaluate.
Qu. Could you share which Ratio OD(Variant)/OD(WT) value was measured for KB001 mouse Fab VL S26D (Fab, V domains shown) VH: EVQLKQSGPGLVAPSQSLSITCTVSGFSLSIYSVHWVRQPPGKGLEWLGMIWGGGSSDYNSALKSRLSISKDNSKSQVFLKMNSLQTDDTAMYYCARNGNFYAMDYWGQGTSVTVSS VL: QIVLTQSPAIMSASLGERVTMTCTADSSVSSSFLHWYQQKPGSSPQLWIYSTSNLASGVPARFSGSGSGTSYSLTISSMEAEDAATYYCHQYHHSPYIYTFGGGTKLEIK ?
Ans. 1.05
